target of assay: T1, soluble recombinant G protein (amino acids 66-292 of the 18537 strain sequence) (RSV strain 18537 (subtype B), UniProt P20896 66-292)
T1 construct: also called G(B); recombinant protein G
T1 sequence: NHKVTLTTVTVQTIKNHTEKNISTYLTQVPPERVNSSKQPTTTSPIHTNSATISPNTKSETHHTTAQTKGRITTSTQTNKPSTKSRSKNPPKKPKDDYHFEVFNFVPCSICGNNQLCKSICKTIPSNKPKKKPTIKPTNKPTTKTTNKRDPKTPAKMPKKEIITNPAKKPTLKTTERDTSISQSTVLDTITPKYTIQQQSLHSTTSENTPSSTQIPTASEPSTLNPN
assay remarks: SPR (Biacore 3000), Fab over immobilised recombinant antigen;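 further: antigen immobilised on CM5 chip at very low density (about 50 RU), rate constants fitted globally with a 1:1 Langmuir model, Fabs obtained by enzymatic cleavage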
measurement label: kon (M⁻¹ s⁻¹)

| binder | measurement label | number |
| --- | --- | --- |
| Fab fragment of antibody from clone 838 (Fab, V domains shown, also called Fab clone 838; 838 (G)) VH: QVQLVESGGGVVQPGTSLRLSCAASGFTFSTFGMHWVRQAPGKGLEWVAVISYDGNKKYYADSVKGRFTISRDNSKNTLYLQVNSLRVEDTAVYYCAAQTPYFNESSGLVPDWGQGTLVTVSS VL: DIQMTQSPSSLSASVGDRVSITCRASQGISNYLAWYQQKPGKVPKLLIYAASTLQSGVPSRFSGSGSGTDFTLTISSLQPEDVATYYCQKYNSAPQTFGQGTKVEIKR | kon | 264000 |
| Fab fragment of antibody from clone 853 (Fab, V domains shown, also called Fab clone 853; 853 (G)) VH: EVQLVQSGAEVKKPGQSLKISCKTSGYIFTNYWIGWVRQRPGKGLEWMGVIFPADSDARYSPSFQGQVTISADKSIGTAYLQWSSLKASDTAIYYCARPKYYFDSSGQFSEMYYFDFWGQGTLVTVSS VL: EIVLTQSPGTLSLSPGERATLSCRASQSVSSNYLAWYQQKPGQAPRLLIYGASSRAAGMPDRFSGSGSGTDFTLTISRLEPEDFAVYYCQQYGNSPLTFGGGTEVEIKR | kon | 1.77e+06 |
| Fab fragment of antibody from clone 811 (Fab, V domains shown, also called Fab clone 811; 811 (G)) VH: QVQLVQSGAVVETPGASVKVSCKASGYIFGNYYIHWVRQAPGQGLEWMAVINPNGGSTTSAQKFQDRITVTRDTSTTTVYLEVDNLRSEDTATYYCARQRSVTGGFDAWLLIPDASNTWGQGTMVTVSS VL: DIVMTQSPDSLAVSLGERATINCRSSETVLYTSKNQSYLAWYQQKARQPPKLLLYWASTRESGVPARFSGSGSGTDFTLAISSLQAEDVAVYYCQQFFRSPFTFGPGTRLEIKR | kon | 498000 |
